# testSystem: CaV2.2 (Homo sapiens)
# Sequence (Q00975 whole entry): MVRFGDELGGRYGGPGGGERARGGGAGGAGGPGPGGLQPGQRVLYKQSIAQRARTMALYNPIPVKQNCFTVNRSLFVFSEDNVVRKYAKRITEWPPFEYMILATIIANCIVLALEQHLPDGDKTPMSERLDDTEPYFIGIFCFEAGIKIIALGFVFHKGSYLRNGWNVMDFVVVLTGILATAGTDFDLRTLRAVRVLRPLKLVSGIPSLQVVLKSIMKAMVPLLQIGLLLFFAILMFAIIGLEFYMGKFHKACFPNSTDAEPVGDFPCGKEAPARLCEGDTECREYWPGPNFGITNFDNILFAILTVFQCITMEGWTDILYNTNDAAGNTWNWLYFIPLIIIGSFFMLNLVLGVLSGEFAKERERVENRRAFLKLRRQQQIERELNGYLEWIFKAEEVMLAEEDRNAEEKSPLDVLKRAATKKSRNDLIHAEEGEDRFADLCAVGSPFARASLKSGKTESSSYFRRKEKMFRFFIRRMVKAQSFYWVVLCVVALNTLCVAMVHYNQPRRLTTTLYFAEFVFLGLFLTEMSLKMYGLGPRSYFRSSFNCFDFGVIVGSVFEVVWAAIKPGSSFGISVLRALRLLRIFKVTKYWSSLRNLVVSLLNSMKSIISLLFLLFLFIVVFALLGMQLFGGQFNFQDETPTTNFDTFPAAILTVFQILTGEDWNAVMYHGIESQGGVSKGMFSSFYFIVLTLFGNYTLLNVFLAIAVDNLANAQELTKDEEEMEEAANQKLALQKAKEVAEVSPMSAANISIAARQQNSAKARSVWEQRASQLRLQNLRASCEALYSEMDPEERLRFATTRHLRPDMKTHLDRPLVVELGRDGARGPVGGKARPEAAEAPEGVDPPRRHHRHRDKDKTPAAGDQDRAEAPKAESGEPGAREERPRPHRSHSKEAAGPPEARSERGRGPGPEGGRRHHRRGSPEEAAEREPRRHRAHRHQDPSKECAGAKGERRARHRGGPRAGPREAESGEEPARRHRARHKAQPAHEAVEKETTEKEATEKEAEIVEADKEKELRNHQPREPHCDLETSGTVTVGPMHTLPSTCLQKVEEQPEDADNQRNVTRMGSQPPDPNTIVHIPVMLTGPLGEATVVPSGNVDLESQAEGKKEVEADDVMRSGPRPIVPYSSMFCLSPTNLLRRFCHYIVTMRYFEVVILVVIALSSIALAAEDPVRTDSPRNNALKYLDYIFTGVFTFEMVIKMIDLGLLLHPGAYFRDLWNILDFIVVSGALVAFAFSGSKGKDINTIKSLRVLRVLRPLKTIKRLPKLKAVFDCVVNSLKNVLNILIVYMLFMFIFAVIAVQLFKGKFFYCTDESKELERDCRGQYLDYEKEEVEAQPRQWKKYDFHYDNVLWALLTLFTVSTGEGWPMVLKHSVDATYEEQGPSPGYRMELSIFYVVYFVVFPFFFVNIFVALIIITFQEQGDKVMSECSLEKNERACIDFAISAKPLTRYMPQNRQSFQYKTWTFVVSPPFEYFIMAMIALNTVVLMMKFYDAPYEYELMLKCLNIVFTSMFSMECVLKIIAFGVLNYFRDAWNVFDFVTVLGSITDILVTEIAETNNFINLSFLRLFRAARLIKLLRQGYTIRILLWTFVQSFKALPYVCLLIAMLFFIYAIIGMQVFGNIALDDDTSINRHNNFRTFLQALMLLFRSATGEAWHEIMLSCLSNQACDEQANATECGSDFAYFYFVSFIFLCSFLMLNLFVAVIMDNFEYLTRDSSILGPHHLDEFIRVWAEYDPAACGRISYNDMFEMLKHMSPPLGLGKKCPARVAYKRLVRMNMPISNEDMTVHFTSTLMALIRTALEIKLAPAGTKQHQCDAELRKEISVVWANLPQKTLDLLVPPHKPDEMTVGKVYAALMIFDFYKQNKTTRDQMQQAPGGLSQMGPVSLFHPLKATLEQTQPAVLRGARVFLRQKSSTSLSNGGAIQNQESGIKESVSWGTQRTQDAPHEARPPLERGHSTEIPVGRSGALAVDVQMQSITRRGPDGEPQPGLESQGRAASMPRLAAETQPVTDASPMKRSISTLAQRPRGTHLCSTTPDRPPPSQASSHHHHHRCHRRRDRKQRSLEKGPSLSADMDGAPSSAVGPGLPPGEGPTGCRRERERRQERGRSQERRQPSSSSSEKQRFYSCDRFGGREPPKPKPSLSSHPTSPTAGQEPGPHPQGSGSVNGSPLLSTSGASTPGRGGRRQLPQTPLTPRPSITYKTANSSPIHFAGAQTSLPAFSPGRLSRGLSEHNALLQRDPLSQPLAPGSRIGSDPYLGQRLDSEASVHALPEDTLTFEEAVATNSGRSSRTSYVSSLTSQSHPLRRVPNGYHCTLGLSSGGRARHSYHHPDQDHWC
# Sequence (P54284 whole entry partner): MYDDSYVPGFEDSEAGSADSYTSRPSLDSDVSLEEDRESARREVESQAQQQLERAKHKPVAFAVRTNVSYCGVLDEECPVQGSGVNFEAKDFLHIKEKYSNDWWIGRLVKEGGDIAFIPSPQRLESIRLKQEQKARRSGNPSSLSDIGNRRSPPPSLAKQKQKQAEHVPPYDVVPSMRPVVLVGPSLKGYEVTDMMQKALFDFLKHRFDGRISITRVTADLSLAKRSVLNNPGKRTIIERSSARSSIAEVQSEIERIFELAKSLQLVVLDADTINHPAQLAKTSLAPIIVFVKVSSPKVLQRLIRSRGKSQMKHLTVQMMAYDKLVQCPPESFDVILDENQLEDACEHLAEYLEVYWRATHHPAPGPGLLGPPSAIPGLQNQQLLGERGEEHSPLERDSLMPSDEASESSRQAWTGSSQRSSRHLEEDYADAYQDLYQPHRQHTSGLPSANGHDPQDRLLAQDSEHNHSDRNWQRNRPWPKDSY
# Sequence (P54289 25-956 partner limits assumed): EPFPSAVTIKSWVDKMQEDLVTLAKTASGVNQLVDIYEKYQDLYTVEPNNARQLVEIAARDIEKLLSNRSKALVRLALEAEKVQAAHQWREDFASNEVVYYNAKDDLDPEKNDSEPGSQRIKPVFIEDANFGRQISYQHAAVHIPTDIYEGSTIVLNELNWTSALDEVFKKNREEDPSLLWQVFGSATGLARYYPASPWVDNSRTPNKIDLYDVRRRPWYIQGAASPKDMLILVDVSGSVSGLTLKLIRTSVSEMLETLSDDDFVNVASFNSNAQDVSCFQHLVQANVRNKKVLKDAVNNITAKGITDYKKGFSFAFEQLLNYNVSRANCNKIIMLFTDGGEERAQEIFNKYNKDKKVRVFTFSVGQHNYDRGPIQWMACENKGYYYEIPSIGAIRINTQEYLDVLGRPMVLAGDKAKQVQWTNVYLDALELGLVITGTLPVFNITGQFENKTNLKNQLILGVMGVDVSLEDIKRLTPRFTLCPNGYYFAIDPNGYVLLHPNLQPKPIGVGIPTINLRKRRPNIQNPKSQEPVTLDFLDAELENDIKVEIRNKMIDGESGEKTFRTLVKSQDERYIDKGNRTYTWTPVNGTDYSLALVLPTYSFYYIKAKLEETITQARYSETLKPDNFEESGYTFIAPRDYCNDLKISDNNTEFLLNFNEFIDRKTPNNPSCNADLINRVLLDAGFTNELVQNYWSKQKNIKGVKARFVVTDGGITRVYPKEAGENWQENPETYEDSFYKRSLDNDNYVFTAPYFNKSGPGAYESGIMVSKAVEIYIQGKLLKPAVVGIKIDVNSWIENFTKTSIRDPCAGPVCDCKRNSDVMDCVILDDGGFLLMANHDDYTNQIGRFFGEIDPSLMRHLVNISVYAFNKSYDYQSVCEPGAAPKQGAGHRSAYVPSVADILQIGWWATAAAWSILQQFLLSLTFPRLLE
# Sequence (P54289 957-1103 partner limits assumed): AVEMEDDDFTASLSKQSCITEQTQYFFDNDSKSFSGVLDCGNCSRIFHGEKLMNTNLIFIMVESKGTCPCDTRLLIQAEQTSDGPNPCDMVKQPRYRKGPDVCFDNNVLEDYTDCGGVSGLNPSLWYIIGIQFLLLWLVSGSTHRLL
# assayExplanation: VIPR optical membrane potential assay with electrical stimulation, CaV2.2
# conditionContext: Table 9, CaV 2.2 receptors
pIC50: −log10 of the molar value.
// values below are reported pIC50

{"compound": "COc1cccc(N(C(=O)c2cnc(N3CCCCC3)nc2-c2ccccc2Cl)C2CCCCC2)c1 [compound 115]", "pIC50": "5.00 to 5.70"}
{"compound": "CC(C)N(Cc1ccccc1)C(=O)c1cnc(NCc2cccc3ccccc23)nc1-c1ccccc1F [compound 135]", "pIC50": "5.00 to 5.70"}
{"compound": "CC(C)N(C(=O)c1cnc(N2CCCCC2)nc1-c1ccccc1Cl)C1CCSC1 (stereo not shown) [compound 155]", "pIC50": "5.00 to 5.70"}
{"compound": "O=C(c1cnc(NCc2cccc(C(F)(F)F)c2)nc1-c1ccccc1F)N1CCOCC1 [compound 236]", "pIC50": "< 5.00"}

# query: pIC50 of entry CCN(C)c1ncc(C(=O)N2CCC(C)CC2)c(-c2cccc(C)c2)n1 [compound 343]
< 5.00

And then CC(C)N(Cc1ccccc1)C(=O)c1cnc(Nc2ccc3c(c2)OCO3)nc1-c1ccccc1F [compound 51] , what is it?
5.00 to 5.70

Repeat for the following compound: CCN(Cc1cccc(C)c1)C(=O)c1cnc(N(C)CC)nc1-c1ccccc1F [compound 246]
5.00 to 5.70
